Kindly state Kd for each of the entries shown.
- MEASURED_TARGET: equine FcRn (large alpha subunit p51) in complex with equine beta-2-microglobulin (equine) (UniProt F6XZ61)
- EXPERIMENTAL_DETAILS: SPR (Biacore), pH 6
Put your answer as a value accompanied by its unit after it.

[ask] For the binder equine IgG7 T286E mutant (antibody, part only; not given: variable domains, not shown: another chain or arm of the molecule) constant: ASTTAPKVFPLASHSAATSGSTVALGCLVSSYFPEPVTVSWNSGALTSGVHTFPSVLQSSGLYSLSSMVTVPASSLKSQTYICNVAHPASSTKVDKKIVIKECGGCPTCPECLSVGPSVFIFPPKPKDVLMISRTPTVTCVVVDVGHDFPDVQFNWYVDGVETHEATTEPKQEQNNSTYRVVSILAIQHKDWLSGKEFKCKVNNQALPAPVQKTISKPTGQPREPQVYVLAPHRDELSKNKVSVTCLVKDFYPTDIDIEWKSNGQPEPETKYSTTPAQLDSDGSYFLYSKLTVETNRWQQGTTFTCAVMHEALHNHYTEKSVSKSPGK , report Kd.
[reply] 35.5 nM

[ask] Provide one value: measured Kd of equine IgG7 T286W mutant (antibody, part only; not given: variable domains, not shown: another chain or arm of the molecule) constant: ASTTAPKVFPLASHSAATSGSTVALGCLVSSYFPEPVTVSWNSGALTSGVHTFPSVLQSSGLYSLSSMVTVPASSLKSQTYICNVAHPASSTKVDKKIVIKECGGCPTCPECLSVGPSVFIFPPKPKDVLMISRTPTVTCVVVDVGHDFPDVQFNWYVDGVETHWATTEPKQEQNNSTYRVVSILAIQHKDWLSGKEFKCKVNNQALPAPVQKTISKPTGQPREPQVYVLAPHRDELSKNKVSVTCLVKDFYPTDIDIEWKSNGQPEPETKYSTTPAQLDSDGSYFLYSKLTVETNRWQQGTTFTCAVMHEALHNHYTEKSVSKSPGK
[reply] 15.4 nM

[ask] Tell me its Kd given equine IgG7 T286R mutant (antibody, part only; not given: variable domains, not shown: another chain or arm of the molecule) constant: ASTTAPKVFPLASHSAATSGSTVALGCLVSSYFPEPVTVSWNSGALTSGVHTFPSVLQSSGLYSLSSMVTVPASSLKSQTYICNVAHPASSTKVDKKIVIKECGGCPTCPECLSVGPSVFIFPPKPKDVLMISRTPTVTCVVVDVGHDFPDVQFNWYVDGVETHRATTEPKQEQNNSTYRVVSILAIQHKDWLSGKEFKCKVNNQALPAPVQKTISKPTGQPREPQVYVLAPHRDELSKNKVSVTCLVKDFYPTDIDIEWKSNGQPEPETKYSTTPAQLDSDGSYFLYSKLTVETNRWQQGTTFTCAVMHEALHNHYTEKSVSKSPGK as the entry.
[reply] 7.8 nM

[ask] For the binder equine IgG7 N434C mutant (antibody, part only; not given: variable domains, not shown: another chain or arm of the molecule) constant: ASTTAPKVFPLASHSAATSGSTVALGCLVSSYFPEPVTVSWNSGALTSGVHTFPSVLQSSGLYSLSSMVTVPASSLKSQTYICNVAHPASSTKVDKKIVIKECGGCPTCPECLSVGPSVFIFPPKPKDVLMISRTPTVTCVVVDVGHDFPDVQFNWYVDGVETHTATTEPKQEQNNSTYRVVSILAIQHKDWLSGKEFKCKVNNQALPAPVQKTISKPTGQPREPQVYVLAPHRDELSKNKVSVTCLVKDFYPTDIDIEWKSNGQPEPETKYSTTPAQLDSDGSYFLYSKLTVETNRWQQGTTFTCAVMHEALHCHYTEKSVSKSPGK , give its measured Kd value.
[reply] 2.5 nM

[ask] State, in one line, measured Kd of equine IgG7 A426K mutant (antibody, part only; not given: variable domains, not shown: another chain or arm of the molecule) constant: ASTTAPKVFPLASHSAATSGSTVALGCLVSSYFPEPVTVSWNSGALTSGVHTFPSVLQSSGLYSLSSMVTVPASSLKSQTYICNVAHPASSTKVDKKIVIKECGGCPTCPECLSVGPSVFIFPPKPKDVLMISRTPTVTCVVVDVGHDFPDVQFNWYVDGVETHTATTEPKQEQNNSTYRVVSILAIQHKDWLSGKEFKCKVNNQALPAPVQKTISKPTGQPREPQVYVLAPHRDELSKNKVSVTCLVKDFYPTDIDIEWKSNGQPEPETKYSTTPAQLDSDGSYFLYSKLTVETNRWQQGTTFTCKVMHEALHNHYTEKSVSKSPGK
[reply] 17.8 nM

[ask] Give a short answer stating reported Kd for equine IgG7 D312S mutant (antibody, part only; not given: variable domains, not shown: another chain or arm of the molecule) constant: ASTTAPKVFPLASHSAATSGSTVALGCLVSSYFPEPVTVSWNSGALTSGVHTFPSVLQSSGLYSLSSMVTVPASSLKSQTYICNVAHPASSTKVDKKIVIKECGGCPTCPECLSVGPSVFIFPPKPKDVLMISRTPTVTCVVVDVGHDFPDVQFNWYVDGVETHTATTEPKQEQNNSTYRVVSILAIQHKSWLSGKEFKCKVNNQALPAPVQKTISKPTGQPREPQVYVLAPHRDELSKNKVSVTCLVKDFYPTDIDIEWKSNGQPEPETKYSTTPAQLDSDGSYFLYSKLTVETNRWQQGTTFTCAVMHEALHNHYTEKSVSKSPGK .
[reply] 9.6 nM

[ask] State, in one line, measured Kd of equine IgG7 K311V mutant (antibody, part only; not given: variable domains, not shown: another chain or arm of the molecule) constant: ASTTAPKVFPLASHSAATSGSTVALGCLVSSYFPEPVTVSWNSGALTSGVHTFPSVLQSSGLYSLSSMVTVPASSLKSQTYICNVAHPASSTKVDKKIVIKECGGCPTCPECLSVGPSVFIFPPKPKDVLMISRTPTVTCVVVDVGHDFPDVQFNWYVDGVETHTATTEPKQEQNNSTYRVVSILAIQHVDWLSGKEFKCKVNNQALPAPVQKTISKPTGQPREPQVYVLAPHRDELSKNKVSVTCLVKDFYPTDIDIEWKSNGQPEPETKYSTTPAQLDSDGSYFLYSKLTVETNRWQQGTTFTCAVMHEALHNHYTEKSVSKSPGK
[reply] 21.3 nM

[ask] For the binder equine IgG7 M428K mutant (antibody, part only; not given: variable domains, not shown: another chain or arm of the molecule) constant: ASTTAPKVFPLASHSAATSGSTVALGCLVSSYFPEPVTVSWNSGALTSGVHTFPSVLQSSGLYSLSSMVTVPASSLKSQTYICNVAHPASSTKVDKKIVIKECGGCPTCPECLSVGPSVFIFPPKPKDVLMISRTPTVTCVVVDVGHDFPDVQFNWYVDGVETHTATTEPKQEQNNSTYRVVSILAIQHKDWLSGKEFKCKVNNQALPAPVQKTISKPTGQPREPQVYVLAPHRDELSKNKVSVTCLVKDFYPTDIDIEWKSNGQPEPETKYSTTPAQLDSDGSYFLYSKLTVETNRWQQGTTFTCAVKHEALHNHYTEKSVSKSPGK , give its measured Kd value.
[reply] 63.5 nM
